# TESTED SYSTEM: Peroxisome proliferator-activated receptor gamma/Nuclear receptor coactivator 2 (Homo sapiens);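 further: agonist potency for raising coactivator recruitment to the receptor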
# Sequence (P37231 whole entry): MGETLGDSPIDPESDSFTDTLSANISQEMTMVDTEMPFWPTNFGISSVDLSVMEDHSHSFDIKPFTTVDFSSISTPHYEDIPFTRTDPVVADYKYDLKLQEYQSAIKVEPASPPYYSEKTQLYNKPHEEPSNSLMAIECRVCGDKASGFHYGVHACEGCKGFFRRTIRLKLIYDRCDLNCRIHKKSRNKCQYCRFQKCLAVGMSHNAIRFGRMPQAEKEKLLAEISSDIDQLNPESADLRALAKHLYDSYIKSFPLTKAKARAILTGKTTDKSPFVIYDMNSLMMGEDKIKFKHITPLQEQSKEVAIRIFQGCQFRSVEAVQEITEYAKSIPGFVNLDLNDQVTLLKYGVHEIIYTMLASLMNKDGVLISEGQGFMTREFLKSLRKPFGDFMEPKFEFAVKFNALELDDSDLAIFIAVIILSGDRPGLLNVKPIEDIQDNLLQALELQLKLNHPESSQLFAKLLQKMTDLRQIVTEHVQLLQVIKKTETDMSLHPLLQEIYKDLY
# Sequence (Q15596 whole entry, further chain): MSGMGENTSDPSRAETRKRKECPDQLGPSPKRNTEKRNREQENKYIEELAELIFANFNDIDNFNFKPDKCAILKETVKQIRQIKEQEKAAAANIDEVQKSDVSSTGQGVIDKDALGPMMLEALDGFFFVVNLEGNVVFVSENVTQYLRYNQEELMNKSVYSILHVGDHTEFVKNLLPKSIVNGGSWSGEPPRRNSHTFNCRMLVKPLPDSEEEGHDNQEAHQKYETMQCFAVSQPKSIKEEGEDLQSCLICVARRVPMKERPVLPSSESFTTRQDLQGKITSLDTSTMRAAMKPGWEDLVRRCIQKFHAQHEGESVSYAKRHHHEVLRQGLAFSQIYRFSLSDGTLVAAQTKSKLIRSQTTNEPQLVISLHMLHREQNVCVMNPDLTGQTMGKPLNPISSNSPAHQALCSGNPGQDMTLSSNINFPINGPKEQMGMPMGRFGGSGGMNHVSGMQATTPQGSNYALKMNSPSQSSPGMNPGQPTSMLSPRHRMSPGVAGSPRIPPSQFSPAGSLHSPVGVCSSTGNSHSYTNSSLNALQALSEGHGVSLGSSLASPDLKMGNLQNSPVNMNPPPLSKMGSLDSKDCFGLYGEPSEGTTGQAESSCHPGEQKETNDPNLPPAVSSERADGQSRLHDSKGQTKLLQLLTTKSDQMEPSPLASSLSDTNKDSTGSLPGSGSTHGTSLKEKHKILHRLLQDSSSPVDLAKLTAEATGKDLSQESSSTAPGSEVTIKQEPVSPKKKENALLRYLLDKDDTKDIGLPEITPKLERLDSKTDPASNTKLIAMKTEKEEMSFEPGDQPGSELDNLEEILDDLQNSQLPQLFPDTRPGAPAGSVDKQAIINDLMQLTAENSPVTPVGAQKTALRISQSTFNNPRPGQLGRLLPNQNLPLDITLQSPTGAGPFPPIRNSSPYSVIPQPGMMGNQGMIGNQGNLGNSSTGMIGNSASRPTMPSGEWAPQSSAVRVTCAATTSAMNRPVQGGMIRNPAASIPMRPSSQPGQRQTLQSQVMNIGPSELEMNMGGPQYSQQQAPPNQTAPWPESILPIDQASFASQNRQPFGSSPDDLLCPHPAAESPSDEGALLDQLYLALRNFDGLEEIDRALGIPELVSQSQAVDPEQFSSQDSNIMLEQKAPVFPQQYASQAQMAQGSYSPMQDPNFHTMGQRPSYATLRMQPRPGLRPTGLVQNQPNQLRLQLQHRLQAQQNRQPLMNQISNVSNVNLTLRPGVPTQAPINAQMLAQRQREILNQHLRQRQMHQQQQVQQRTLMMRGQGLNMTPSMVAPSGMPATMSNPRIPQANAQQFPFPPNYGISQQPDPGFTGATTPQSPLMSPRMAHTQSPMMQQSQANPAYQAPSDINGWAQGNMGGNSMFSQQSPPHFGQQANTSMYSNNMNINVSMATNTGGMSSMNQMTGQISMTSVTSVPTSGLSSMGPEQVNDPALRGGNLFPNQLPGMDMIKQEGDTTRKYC
# Type: functional
Listed compounds paired with reported EC50

Answered cases to consult:
Can you look up the measured EC50 of `O=c1c(Cl)nc2cc(Cl)ccc2n1CCNc1ncc(C(F)(F)F)cc1Cl` for me? 20.1 µM (not active)

Could you share which EC50 value was measured for `Cc1cc(OCC(=O)Nc2cc(-c3nn4c(C)nnc4s3)ccc2C)ccc1Cl` ? 10.1 µM (not active)

I'd like to know its EC50. The compound in question is `COc1ccc(C(=O)C(C)(C)NO)cc1` > 79.4 µM (not active)

# query: EC50 of entry `CCOC(=O)c1c(NC(=O)CSc2nnc(CNc3ccc(F)cc3)o2)sc(C(C)=O)c1C` 42.5 µM (not active)

Please find the next compound below.
For the compound shown here, `COc1cccc(/C=c2/s/c(=C(\C#N)C(=O)N3CCOCC3)n(-c3ccccc3)c2=O)c1` , give the reported EC50. > 79.4 µM (not active)
